Measured values drawn from ChEMBL document CHEMBL1201861 for this set.

tested on: SBC-5; test: cells; format: functional, cell-based, Homo sapiens; conditions: sbc-5;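 note: cell viability assay read-out, IC50 is the concentration that inhibits growth of the cells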
Description: SANGER: Inhibition of human SBC-5 cell growth in a cell viability assay.
MEASUREMENT_TYPE: pIC50
Give only the number. pIC50 is defined as minus log10 of concentration in molar units.

Reported pIC50 for BLEOMYCIN was 6.21

----------
Please provide measured pIC50 for the entries that follow.
test system: 23132-87; test: cells; assay type: functional, cell-based, Homo sapiens; settings: Homo sapiens
Description: SANGER: Inhibition of human 23132-87 cell growth in a cell viability assay.
pIC50: −log10 of the molar value.

Reported pIC50 for CS(=O)(=O)c1ccc(C(=O)Nc2ccc(Cl)c(-c3ccccn3)c2)c(Cl)c1 [VISMODEGIB] was 5.36

Reported pIC50 for N#Cc1c(O)c2c(-c3ccc(-c4ccccc4O)cc3)csc2[nH]c1=O was < 5.99

Reported pIC50 for Nc1cccc2c1CN(C1CCC(=O)NC1=O)C2=O (centres undefined) [LENALIDOMIDE] was < 5.30

Reported pIC50 for C=C(c1ccc(C(=O)O)cc1)c1cc2c(cc1C)C(C)(C)CCC2(C)C [BEXAROTENE] was < 5.10

----------
Please provide measured IC50 for the entries that follow.
system: HCC2157; assay: cells; format: functional, cell-based, Homo sapiens; settings: Homo sapiens, HCC2157;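 note: growth inhibition of the cancer cell line, read out as cell viability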
Description: SANGER: Inhibition of human HCC2157 cell growth in a cell viability assay.
// note: answer is a bare numeric in µM

Reported IC50 for COc1cccc2c1C(=O)c1c(O)c3c(c(O)c1C2=O)C[C@@](O)(C(=O)CO)C[C@@H]3O[C@H]1C[C@H](N)[C@H](O)[C@H](C)O1 was 0.064

Reported IC50 for Cc1cc([N+](=O)[O-])ccc1NS(=O)(=O)c1cc(Cl)ccc1Cl was 8.76

----------
tested on: MC-IXC; assay: cells; assay type: functional, cell-based, Homo sapiens; details: mc-ixc;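 note: growth inhibition of MC-IXC cells, read out with a cell viability assay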
Description: SANGER: Inhibition of human MC-IXC cell growth in a cell viability assay.
MEASUREMENT_TYPE: IC50 (nM)
// note: answer is a bare numeric in nM

Reported IC50 for BLEOMYCIN was 3000

----------
Please provide measured pIC50 for the entries that follow.
test system: SUP-T1; assay: cells; type: functional, cell-based, Homo sapiens; settings: Homo sapiens, SUP-T1;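 note: growth inhibition of human SUP-T1 cells, read out as cell viability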
Description: SANGER: Inhibition of human SUP-T1 cell growth in a cell viability assay.
pIC50: −log10 of the molar value.

// returns pIC50 for C#Cc1cccc(Nc2ncnc3cc(OCCOC)c(OCCOC)cc23)c1 with SUP-T1; value = < 5.70

// returns pIC50 for Oc1ccc2ccccc2c1SSc1c(O)ccc2ccccc12 with SUP-T1; value = < 4.49

// returns pIC50 for CCN(CC)CCNC(=O)c1c(C)[nH]c(/C=C2\C(=O)Nc3ccc(F)cc32)c1C with SUP-T1; value = < 5.10

----------
system: L-428; experiment: cells; assay type: functional, cell-based, Homo sapiens; conditions: Homo sapiens, L-428
Description: SANGER: Inhibition of human L-428 cell growth in a cell viability assay.
MEASUREMENT_TYPE: IC50

Reported IC50 for O=C(O)c1ccc(-c2c[nH]c3ncc(-c4ccccc4)cc23)cc1C1CCCC1 was > 16 µM

Reported IC50 for CO[C@H]1C[C@@H]2CC[C@@H](C)[C@@](O)(O2)C(=O)C(=O)N2CCCC[C@H]2C(=O)O[C@H]([C@H](C)C[C@@H]2CC[C@@H](OC(=O)C(C)(CO)CO)[C@H](OC)C2)CC(=O)[C@H](C)/C=C(\C)[C@@H](O)[C@@H](OC)C(=O)[C@H](C)C[C@H](C)/C=C/C=C/C=C/1C was > 0.2 µM

Reported IC50 for Cc1cn(-c2cc(NC(=O)c3ccc(C)c(Nc4nccc(-c5cccnc5)n4)c3)cc(C(F)(F)F)c2)cn1 was > 2 µM

Reported IC50 for CN(C)C(=N)NC(=N)N was 7760 µM

Reported IC50 for COc1cc(-c2nn([C@H]3CC[C@H](N4CCN(C(C)=O)CC4)CC3)c3ncnc(N)c23)ccc1NC(=O)c1cc2ccccc2n1C was > 5.12 µM

----------
test system: C-33-A; experiment: cells; type: functional, cell-based, Homo sapiens; conditions: Homo sapiens, C-33-A;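 note: cell viability assay measuring growth inhibition of C-33-A cells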
Description: SANGER: Inhibition of human C-33-A cell growth in a cell viability assay.
MEASUREMENT_TYPE: IC50 (µM)
// note: answer is a bare numeric in µM

Reported IC50 for COc1cccc2c1C(=O)c1c(O)c3c(c(O)c1C2=O)C[C@@](O)(C(=O)CO)C[C@@H]3O[C@H]1C[C@H](N)[C@H](O)[C@H](C)O1 was 0.0329

Reported IC50 for O=C(O)c1ccc(-c2c[nH]c3ncc(-c4ccccc4)cc23)cc1C1CCCC1 was 8.53

----------
tested on: NB1; assay: cells; type: functional, cell-based, Homo sapiens; details: Homo sapiens, NB1;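 note: reduction of NB1 cell proliferation, read out with a viability assay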
Description: SANGER: Inhibition of human NB1 cell growth in a cell viability assay.
Please provide measured IC50 for the entries that follow.
// note: answer is a bare numeric in µM

Reported IC50 for CC[C@H](CO)Nc1nc(NCc2ccccc2)c2ncn(C(C)C)c2n1 was 12.3

Reported IC50 for N[C@@H](CSC(c1ccccc1)(c1ccccc1)c1ccccc1)C(=O)O was 2.94

Reported IC50 for Cc1cc([N+](=O)[O-])ccc1NS(=O)(=O)c1cc(Cl)ccc1Cl was 8.38

----------
system: NCI-H2291; experiment: cells; assay type: functional, cell-based, Homo sapiens; conditions: Homo sapiens, NCI-H2291
Description: SANGER: Inhibition of human NCI-H2291 cell growth in a cell viability assay.
pIC50: −log10 of the molar value.
Please provide measured pIC50 for the entries that follow.

// returns pIC50 for CC1(C)CNc2cc(NC(=O)c3cccnc3NCc3ccncc3)ccc21 with NCI-H2291; value = < 5.70

// returns pIC50 for CC(C)c1ccccc1Cc1cc(C(=O)Nc2ccc(S(=O)(=O)c3ccccc3C(C)(C)C)cc2)c(O)c(O)c1O with NCI-H2291; value = 4.68

// returns pIC50 for CO[C@H]1C[C@@H]2CC[C@@H](C)[C@@](O)(O2)C(=O)C(=O)N2CCCC[C@H]2C(=O)O[C@H]([C@H](C)C[C@@H]2CC[C@@H](OC(=O)C(C)(CO)CO)[C@H](OC)C2)CC(=O)[C@H](C)/C=C(\C)[C@@H](O)[C@@H](OC)C(=O)[C@H](C)C[C@H](C)/C=C/C=C/C=C/1C with NCI-H2291; value = < 6.70

----------
system: HSC-3; assay: cells; type: functional, cell-based, Homo sapiens; conditions: Homo sapiens, HSC-3
Description: SANGER: Inhibition of human HSC-3 cell growth in a cell viability assay.
pIC50: −log10 of the molar value.
Please provide measured pIC50 for the entries that follow.

Reported pIC50 for N#Cc1c(O)c2c(-c3ccc(-c4ccccc4O)cc3)csc2[nH]c1=O was < 5.99

Reported pIC50 for CCN(CC)CCCCNc1ncc2cc(-c3cc(OC)cc(OC)c3)c(NC(=O)NC(C)(C)C)nc2n1 was < 5.70

Reported pIC50 for Cc1cc([N+](=O)[O-])ccc1NS(=O)(=O)c1cc(Cl)ccc1Cl was 5.54

Reported pIC50 for CN(C)C(=N)NC(=N)N was < 1.70

----------
Please provide measured pIC50 for the entries that follow.
tested on: KS-1; assay: cells; type: functional, cell-based, Homo sapiens; details: Homo sapiens, KS-1
Description: SANGER: Inhibition of human KS-1 cell growth in a cell viability assay.
pIC50: −log10 of the molar value. Where a name gives a salt, the structure may show the parent alone.

Reported pIC50 for COc1cc(N2CCN(C)CC2)ccc1Nc1ncc2c(n1)N(C)c1ccccc1C(=O)N2C was 5.27

Reported pIC50 for CC(=O)O[C@H]1C(=O)[C@@]2(C)[C@H]([C@H](OC(=O)c3ccccc3)[C@]3(O)C[C@H](OC(=O)[C@H](O)[C@@H](NC(=O)c4ccccc4)c4ccccc4)C(C)=C1C3(C)C)[C@]1(OC(C)=O)CO[C@@H]1C[C@@H]2O was 8.24

Reported pIC50 for Nc1cccc2c1CN(C1CCC(=O)NC1=O)C2=O (stereo not drawn) [LENALIDOMIDE] was < 5.30

Reported pIC50 for Cc1cn(-c2cc(NC(=O)c3ccc(C)c(Nc4nccc(-c5cccnc5)n4)c3)cc(C(F)(F)F)c2)cn1 was < 5.70

Reported pIC50 for CS(=O)(=O)c1ccc(C(=O)Nc2ccc(Cl)c(-c3ccccn3)c2)c(Cl)c1 was < 5.00

Reported pIC50 for N#Cc1c(O)c2c(-c3ccc(-c4ccccc4O)cc3)csc2[nH]c1=O was < 5.99

Reported pIC50 for C#Cc1cccc(Nc2ncnc3cc(OCCOC)c(OCCOC)cc23)c1 was < 5.70

Reported pIC50 for COC1=CC(c2cc3ccccc3[nH]2)=N/C1=C\c1[nH]c(C)cc1C [OBATOCLAX MESYLATE] was 6.52

Reported pIC50 for CC(C)c1ccccc1Cc1cc(C(=O)Nc2ccc(S(=O)(=O)c3ccccc3C(C)(C)C)cc2)c(O)c(O)c1O was 6.49

Reported pIC50 for CN(C)C(=N)NC(=N)N was < 1.70

Reported pIC50 for CC(C)CCN1c2nc(Nc3cc(F)c(O)c(F)c3)ncc2N(C)C(=O)C1C (stereo not drawn) was < 5.30

Reported pIC50 for OCCCNc1cc(-c2ccnc(Nc3cccc(Cl)c3)n2)ccn1 was 7.86

Reported pIC50 for CC1(C)CNc2cc(NC(=O)c3cccnc3NCc3ccncc3)ccc21 was < 5.70

----------
Please provide measured pIC50 for the entries that follow.
tested on: K052; experiment: cells; type: functional, cell-based, Homo sapiens; conditions: Homo sapiens, K052;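 note: Read-out from a cell viability assay, IC50 reflecting suppression of K052 cell growth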
Description: SANGER: Inhibition of human K052 cell growth in a cell viability assay.
Counter-ions that a name gives are not always drawn.
Give only the number. pIC50 is defined as minus log10 of concentration in molar units.

Reported pIC50 for N[C@@H](CSC(c1ccccc1)(c1ccccc1)c1ccccc1)C(=O)O [S-TRITYL-L-CYSTEINE] was 6.01

Reported pIC50 for CC(=O)O[C@H]1C(=O)[C@@]2(C)[C@H]([C@H](OC(=O)c3ccccc3)[C@]3(O)C[C@H](OC(=O)[C@H](O)[C@@H](NC(=O)c4ccccc4)c4ccccc4)C(C)=C1C3(C)C)[C@]1(OC(C)=O)CO[C@@H]1C[C@@H]2O [PACLITAXEL] was 7.49

Reported pIC50 for COC1=CC(c2cc3ccccc3[nH]2)=N/C1=C\c1[nH]c(C)cc1C [OBATOCLAX MESYLATE] was 6.03
